Recorded measurements of Tox/Tot (mice which died / total), one per entry
Test system: 6C3HED lymphosarcoma
Assay: animal or person
Type: in vivo
Conditions: IP, 300 mg/kg, DX 8

Previously resolved entries follow.
[[record]]
compound = "Cc1ccc(NC(=O)N=S(N)(=O)c2ccc(C)cc2)cc1 (centres unmarked) [Example 24]"
measuredon = "6C3HED lymphosarcoma"
obsvalue = "0/10"

[[record]]
compound = "NS(=O)(=NC(=O)Nc1ccc(Cl)cc1)c1ccc(CO)cc1 (centres unmarked) [Example 50]"
measuredon = "6C3HED lymphosarcoma"
obsvalue = "1/10"

[[record]]
compound = "Cc1ccc(S(=N)(=O)NC(=O)Nc2ccc(Cl)cc2)cc1 (centres unmarked) [Example 2]"
measuredon = "6C3HED lymphosarcoma"
obsvalue = "6/10"

[[record]]
compound = "CC(=O)OCc1ccc(S(=N)(=O)NC(=O)Nc2ccc(Cl)cc2)cc1 (centres unmarked) [Example 49]"
measuredon = "6C3HED lymphosarcoma"
obsvalue = "10/10"

[[record]]
compound = "Cc1ccc(S(=O)(=NC(=O)Nc2ccc(Cl)cc2)Nc2ccccc2)cc1 (centres unmarked) [Example 14]"
measuredon = "6C3HED lymphosarcoma"
obsvalue = "3/10"


Exam item: For the compound N=S(=O)(NC(=O)Nc1ccc(Cl)cc1)c1ccc2c(c1)CCC2 (centres unmarked) [Example 54] , what Tox/Tot (mice which died / total) is on record?
Marked response: 3/10

Exam item: Give its Tox/Tot (mice which died / total) value. Item: CCN=S(=O)(NC(=O)Nc1ccc(Cl)cc1)c1ccc(C)cc1 (centres unmarked) [Example 4]
Marked response: 0/10

Exam item: Please look up its Tox/Tot (mice which died / total): Cc1ccc(S(=O)(=NC(=O)Nc2ccc(Cl)cc2)N(C)C)cc1 (centres unmarked) [Example 18]
Marked response: 4/8

----------
System: 6C3HED lymphosarcoma
Experiment: animal or person
Type: in vivo
Settings: Mus musculus, 6C3HED, ip, read-out: % inhibition of tumor growth, IP, 150 mg/kg, DX 8
measuredQuantity: inhibition in vivo at 150 mg/kg (%)
Return type: number; implicit unit %.

Use the examples below as a reference point.
[[record]]
compound = "CCCNS(=O)(=NC(=O)Nc1ccc(Cl)cc1)c1ccc(C)cc1 (centres unmarked)"
obsvalue = 34

[[record]]
compound = "Cc1cc(S(N)(=O)=NC(=O)Nc2ccc(Cl)cc2)cc(C)c1Cl (centres unmarked)"
obsvalue = 72

[[record]]
compound = "Cc1ccc(NC(=O)N=S(N)(=O)c2ccc(C)cc2)cc1 (centres unmarked)"
obsvalue = 31

[[record]]
compound = "Cc1ccc(S(=N)(=O)NC(=O)Nc2ccc(Cl)cc2)cc1 (centres unmarked)"
obsvalue = 92


Shifting focus to the compound that follows.
Exam item: State its inhibition in vivo at 150 mg/kg on 6C3HED lymphosarcoma: Cc1ccc(S(=O)(=NC(=O)Nc2ccc(Cl)cc2)Nc2ccccc2)cc1 (centres unmarked)
Marked response: 1
